target: PRMT5/MEP50 complex (Homo sapiens); construct: FLAG; assay: PRMT5/MEP50 SPA Assay; conditions: Mean ± SEM
Sequence (O14744 whole entry): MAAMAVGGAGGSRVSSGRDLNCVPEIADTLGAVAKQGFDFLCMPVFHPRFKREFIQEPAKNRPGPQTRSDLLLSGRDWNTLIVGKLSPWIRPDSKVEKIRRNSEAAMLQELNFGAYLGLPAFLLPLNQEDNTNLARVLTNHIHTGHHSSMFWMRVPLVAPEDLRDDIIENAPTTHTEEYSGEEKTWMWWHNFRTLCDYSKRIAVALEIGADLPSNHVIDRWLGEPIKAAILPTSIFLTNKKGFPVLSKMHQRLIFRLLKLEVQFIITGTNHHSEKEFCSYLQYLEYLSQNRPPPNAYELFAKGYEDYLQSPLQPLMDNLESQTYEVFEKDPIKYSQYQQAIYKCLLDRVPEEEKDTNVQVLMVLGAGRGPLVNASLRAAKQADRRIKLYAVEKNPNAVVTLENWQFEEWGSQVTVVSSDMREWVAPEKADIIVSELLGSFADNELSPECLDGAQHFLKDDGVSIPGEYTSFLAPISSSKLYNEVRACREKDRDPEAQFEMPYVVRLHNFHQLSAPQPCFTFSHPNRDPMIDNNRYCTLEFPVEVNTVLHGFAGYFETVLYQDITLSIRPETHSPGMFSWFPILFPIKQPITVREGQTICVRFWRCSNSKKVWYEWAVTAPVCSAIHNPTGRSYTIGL
Sequence (Q9BQA1 whole entry partner): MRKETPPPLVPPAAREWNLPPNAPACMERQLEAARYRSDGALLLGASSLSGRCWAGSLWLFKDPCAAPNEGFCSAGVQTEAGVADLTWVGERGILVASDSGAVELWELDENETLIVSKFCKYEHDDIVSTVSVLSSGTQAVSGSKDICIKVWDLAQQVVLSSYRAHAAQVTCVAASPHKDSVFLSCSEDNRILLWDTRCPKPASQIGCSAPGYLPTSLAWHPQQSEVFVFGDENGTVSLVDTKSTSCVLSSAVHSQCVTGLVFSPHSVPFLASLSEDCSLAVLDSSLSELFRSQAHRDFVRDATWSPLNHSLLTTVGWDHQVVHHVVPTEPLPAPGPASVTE
measure-name: IC50 (nM)

INSERT INTO assay_data (molecule, observed) VALUES
  ('C[C@@](O)(c1ccc(Cl)cc1)[C@H]1O[C@@H](n2ccc3c(N)ncnc32)[C@H](O)[C@@H]1O [Example 3]', 5.23),
  ('Nc1ncnc2c1ccn2[C@@H]1O[C@H]([C@H](O)c2ccc(Cl)cc2)[C@@H](O)[C@H]1O [Example 1]', 4.27),
  ('Nc1ncnc2c1ccn2[C@@H]1O[C@H]([C@H](O)c2ccc(Cl)c(OC3CC3)c2)[C@@H](O)[C@H]1O [Example 4]', 5.2),
  ('Nc1ncnc2c1ccn2[C@@H]1O[C@H]([C@H](O)c2ccccc2)[C@@H](O)[C@H]1O [Example 2]', 9.51);

###

tested on: PRMT5-dependent alternative splicing of MDM4 in A375 melanoma cells; assay: MDM4 Exon5/6 qPCR Assay in A375 Tumor Cells; format: cell-based; conditions: Homo sapiens, A-375, 72 hr, Mean ± SEM
measure-name: EC50 (nM)

INSERT INTO measurements (compound, tested_on, observed) VALUES
  ('Nc1ncnc2c1ccn2[C@@H]1O[C@H]([C@H](O)c2ccccc2)[C@@H](O)[C@H]1O [Example 2]', 'PRMT5-dependent alternative splicing of MDM4 in A375 melanoma cells', 36.7);

(A) Nc1ncnc2c1ccn2[C@@H]1O[C@H]([C@H](O)c2ccc(Cl)cc2)[C@@H](O)[C@H]1O [Example 1]
(B) C[C@@](O)(c1ccc(Cl)cc1)[C@H]1O[C@@H](n2ccc3c(N)ncnc32)[C@H](O)[C@@H]1O [Example 3]
(C) Nc1ncnc2c1ccn2[C@@H]1O[C@H]([C@H](O)c2ccc(Cl)c(OC3CC3)c2)[C@@H](O)[C@H]1O [Example 4]
Query: Descending sort on EC50 required. Answer format: the labels, ordered as requested.
Result: C, B, A
(C: 1040 nM, B: 42.4 nM, A: 16.8 nM)
